experiment: Mineral binding affinity: elution from hydroxyapatite (HAP) columns by FPLC; format: physicochemical; settings: HAP column, mean ± SE
assay-metric: HAP affinity (mean retention time/min)
Hi! Could you send only the number? It should be in min, unit omitted.

molecule	units-of-measure	HAP affinity (mean retention time/min)
O=P(O)(O)C(O)(Cc1cccnc1)P(=O)(O)O [Risedronate, risedronate]	min	9.97
O=P(O)(O)C(F)(Cc1cnc2ccccn12)P(=O)(O)O	min	6.17

// next entry
May I ask what HAP affinity (mean retention time/min) has been recorded for O=P(O)(O)C(O)(Cn1ccnc1)P(=O)(O)O [Zoledronate, zoledronate] ?
12.53

Origin of values: paper PMC5596338
